IC50 values for MTP (Homo sapiens) compiled from several publications are listed below.
value.kind: IC50 (nM)

>  <molecule>
COC(=O)[C@@H]1C[C@@H](O)CN1C(=O)[C@@]1(c2ccccc2)CC[C@H](C(=O)N2CCC(NC(=O)c3ccccc3OC)CC2)c2ccccc21

>  <IC50 / nM>
3820

$$$$
>  <molecule>
NC(=O)CN1CCN(c2ccc(NC(=O)c3ccccc3-c3ccc(C(F)(F)F)cc3)cc2)CC1

>  <IC50 / nM>
8

$$$$
>  <molecule>
CCOC(=O)[C@]1(c2ccccc2)CC[C@@H](C(=O)N2CCC(NC(=O)c3ccccc3N3CCN(C)CC3)CC2)c2ccccc21

>  <IC50 / nM>
14.5

$$$$
>  <molecule>
CCOC(=O)[C@]1(c2ccccc2)CC[C@H](C(=O)NCCCNC(=O)c2ccccc2OC)c2ccccc21

>  <IC50 / nM>
37.3

$$$$

1: CCOC(=O)C(Cc1ccc(O)cc1)NC(=O)[C@@]1(c2ccccc2)CC[C@H](C(=O)N2CCC(NC(=O)c3cccn(C)c3=O)CC2)c2ccccc21 (stereo partly drawn)
2: COC(=O)[C@@H](CCCCNC(=O)OC(C)(C)C)NC(=O)[C@@]1(c2ccccc2)CC[C@H](C(=O)N2CCC(NC(=O)c3ccccc3OC)CC2)c2ccccc21
3: Cn1cccc(C(=O)NC2CCN(C(=O)[C@H]3CC[C@@](C(=O)N[C@@H](Cc4ccc(O)cc4)C(=O)OC(C)(C)C)(c4ccccc4)c4ccccc43)CC2)c1=O
4: Cc1ccc(C(=O)Nc2ccc(N3CCN(C(C)c4cccc(C#N)c4)CC3)cc2)c(-c2ccc(C(F)(F)F)cc2)c1 (stereo not drawn)
Number of molecules to sort: 4. Sort criterion: IC50, ascending. Please respond with the labels ordered as the question requires.
4, 2, 1, 3

a: COc1ccccc1C(=O)NC1CCN(C(=O)[C@H]2CC[C@@](C(=O)N[C@@H](CC(C)C)C(=O)OC(C)(C)C)(c3ccccc3)c3ccccc32)CC1
b: COc1ccccc1C(=O)NC1CCN(C(=O)[C@H]2CC[C@@](C(=O)N3CCC[C@@H]3C(=O)O)(c3ccccc3)c3ccccc32)CC1
Parameter metric = IC50. Return the lower-valued option from a and b . Let me know the label of the one you choose.
a

* * *

IC50 values for UniProt:P55157 compiled from several publications are listed below.
value.kind: IC50 (nM)

Before answering, review these 2 worked examples.
>  <molecule>
COc1ncccc1C(=O)NC1CCN(C(=O)[C@@H]2CC[C@](C(=O)NCCC(=O)OC(C)C)(c3ccccc3)c3ccccc32)CC1

>  <IC50 (nM)>
757

$$$$
>  <molecule>
O=C(Nc1ccc(N2CCN(C(C(=O)NCC(F)(F)F)c3ccccc3)CC2)cc1)c1ccccc1-c1ccc(C(F)(F)F)cc1 (stereo not drawn)

>  <IC50 (nM)>
13.7

$$$$

P: Cc1ccc(C(=O)Nc2ccc(N3CCN(Cc4cccc(C#N)c4)CC3)cc2)c(-c2ccc(C(C)C)cc2)c1
Q: COc1ccccc1C(=O)NC1CCN(C(=O)[C@H]2CC[C@@](C(=O)N[C@@H](C(=O)OC(C)(C)C)C(C)C)(c3ccccc3)c3ccccc32)CC1
R: CCOC(=O)[C@H](C)NC(=O)[C@@]1(c2ccccc2)CC[C@H](C(=O)N2CCC(NC(=O)c3ccccc3OC)CC2)c2ccccc21
Number of molecules to sort: 3. Sort criterion: IC50, ascending. Please respond with the labels ordered as the question requires.
P, R, Q

* * *

IC50 values for MTP (Homo sapiens, UniProt P55157) compiled from several publications are listed below.
value.kind: IC50 (µM)

Before answering, review these 5 worked examples.
>  <molecule>
COC(=O)[C@H](CCCCNC(=O)[C@@]1(c2ccccc2)CC[C@H](C(=O)N2CCC(NC(=O)c3cccn(C)c3=O)CC2)c2ccccc21)NC(C)=O

>  <IC50 [µM]>
2.67

$$$$
>  <molecule>
CCOC(=O)[C@]1(c2ccccc2)CC[C@H](C(=O)N(C)CCNC(=O)c2ccccc2-c2ccc(C(F)(F)F)cc2)c2ccccc21

>  <IC50 [µM]>
0.0482

$$$$
>  <molecule>
CCOC(=O)[C@@H](Cc1ccccc1)NC(=O)[C@@]1(c2ccccc2)CC[C@H](C(=O)N2CCC(NC(=O)c3ccccc3OC)CC2)c2ccccc21

>  <IC50 [µM]>
0.0129

$$$$
>  <molecule>
COC(=O)[C@@H](CCCCNC(=O)OC(C)C)NC(=O)[C@@]1(c2ccccc2)CC[C@H](C(=O)N2CCC(NC(=O)c3ccccc3OC)CC2)c2ccccc21

>  <IC50 [µM]>
0.00424

$$$$
>  <molecule>
COc1ccccc1C(=O)NC1CCN(C(=O)[C@H]2CC[C@@](C(=O)N[C@@H](CCC(=O)OC(C)C)C(=O)OC(C)C)(c3ccccc3)c3ccccc32)CC1

>  <IC50 [µM]>
0.00661

$$$$

I: CCOC(=O)[C@]1(c2ccccc2)CC[C@@H](C(=O)NCCNC(=O)c2ccccc2OC)c2ccccc21 (stereo in doubt)
II: COC(=O)C(c1ccccc1)C1CCN(c2ccc(NC(=O)c3ccccc3-c3ccc(C(C)C)cc3)cc2)CC1 (stereo not shown)
Parameter metric = IC50. Return the lower-valued option from I and II . Let me know the label of the one you choose.
II

* * *

IC50 values for MTP (Homo sapiens, UniProt P55157) compiled from several publications are listed below.
value.kind: IC50 (nM)

>  <compound>
COC(=O)C(c1ccccc1)C1CCN(c2ccc(NC(=O)c3ccccc3-c3ccc(C(C)(C)C)cc3)cc2)CC1 (stereo not shown)

>  <tested.system>
MTP (Homo sapiens, UniProt P55157)

>  <readout.units>
nM

>  <experimental.result>
2.08

$$$$
>  <compound>
CCNC(=O)[C@]1(c2ccccc2)CC[C@H](C(=O)N2CCC(NC(=O)c3ccccc3-c3ccc(C(F)(F)F)cc3)CC2)c2ccccc21

>  <tested.system>
MTP (Homo sapiens, UniProt P55157)

>  <readout.units>
nM

>  <experimental.result>
217

$$$$

1: CC(C)C[C@H](NC(=O)[C@@]1(c2ccccc2)CC[C@H](C(=O)N2CCC(NC(=O)c3cccn(C)c3=O)CC2)c2ccccc21)C(=O)OC(C)(C)C
2: CCOC(=O)[C@]1(c2ccccc2)CC[C@@H](C(=O)NCCCNC(=O)c2ccccc2OC)c2ccccc21
Parameter metric = IC50. Return the lower-valued option from 1 and 2 . Let me know the label of the one you choose.
2
(2: 9.38 nM, 1: 793 nM)

* * *

IC50 values for MTP (Homo sapiens, UniProt P55157) compiled from several publications are listed below.
value.kind: IC50 (nM)

Before answering, review these 5 worked examples.
>  <molecule>
CCCOC(=O)[C@]1(c2ccccc2)CCC(C(=O)N2CC[C@@H](NC(=O)c3cccnc3OC)C2)c2ccccc21 (stereo partly drawn)

>  <readout.units>
nM

>  <IC50>
23.3

$$$$
>  <molecule>
O=C(Nc1ccc(N2CCN(C(C(=O)NCc3ccccn3)c3ccccc3)CC2)cc1)c1ccccc1-c1ccc(C(F)(F)F)cc1 (stereo not drawn)

>  <readout.units>
nM

>  <IC50>
8.28

$$$$
>  <molecule>
CCOC(=O)CCCCNC(=O)[C@@]1(c2ccccc2)CC[C@H](C(=O)N2CCC(NC(=O)c3ccccc3OC)CC2)c2ccccc21

>  <readout.units>
nM

>  <IC50>
5.45

$$$$
>  <molecule>
CCCOC(=O)CC[C@H](NC(=O)[C@@]1(c2ccccc2)CC[C@H](C(=O)N2CCC(NC(=O)c3ccccc3OC)CC2)c2ccccc21)C(=O)OCCC

>  <readout.units>
nM

>  <IC50>
5.96

$$$$
>  <molecule>
COc1ccccc1C(=O)NC1CCN(C(=O)[C@H]2CC[C@@](C(=O)NCCCC(=O)OC(C)(C)C)(c3ccccc3)c3ccccc32)CC1

>  <readout.units>
nM

>  <IC50>
2.05

$$$$

P: CCCOC(=O)[C@]1(c2ccccc2)CC[C@@H](C(=O)N2CCC(NC(=O)c3ccccc3OC)C2)c2ccccc21 (stereo partly drawn)
Q: CCOC(=O)[C@]1(c2ccccc2)CC[C@@H](C(=O)N(C)CCCNC(=O)c2ccccc2)c2ccccc21
// max by IC50 over [ P , Q ] Let me know the label of the one you choose.
P

P: COC(=O)[C@]1(c2ccccc2)CC[C@@H](C(=O)N2CCC(NC(=O)c3ccccc3OC(F)F)CC2)c2ccccc21
Q: O=C(Nc1ccc(N2CCN(C(C(=O)NCc3ccccc3)c3ccccc3)CC2)cc1)c1ccccc1-c1ccc(C(F)(F)F)cc1 (stereo not drawn)
Parameter metric = IC50. Return the lower-valued option from P and Q . Let me know the label of the one you choose.
Q
(Q: 4.79 nM, P: 10.4 nM)

a: CCOC(=O)CN(C)C(=O)[C@@]1(c2ccccc2)CC[C@H](C(=O)N2CCC(NC(=O)c3cccn(C)c3=O)CC2)c2ccccc21
b: CCCNC(=O)C(c1ccccc1)N1CCN(c2ccc(NC(=O)c3ccccc3-c3ccc(C(F)(F)F)cc3)cc2)CC1 (stereo not drawn)
Parameter metric = IC50. Return the lower-valued option from a and b . Let me know the label of the one you choose.
b
